Field: % DNMT1 protein level remaining at 100 µM. Provide a value for each of the compounds that follow.
# system: DNMT1 (Homo sapiens)
# Sequence (P26358 whole entry): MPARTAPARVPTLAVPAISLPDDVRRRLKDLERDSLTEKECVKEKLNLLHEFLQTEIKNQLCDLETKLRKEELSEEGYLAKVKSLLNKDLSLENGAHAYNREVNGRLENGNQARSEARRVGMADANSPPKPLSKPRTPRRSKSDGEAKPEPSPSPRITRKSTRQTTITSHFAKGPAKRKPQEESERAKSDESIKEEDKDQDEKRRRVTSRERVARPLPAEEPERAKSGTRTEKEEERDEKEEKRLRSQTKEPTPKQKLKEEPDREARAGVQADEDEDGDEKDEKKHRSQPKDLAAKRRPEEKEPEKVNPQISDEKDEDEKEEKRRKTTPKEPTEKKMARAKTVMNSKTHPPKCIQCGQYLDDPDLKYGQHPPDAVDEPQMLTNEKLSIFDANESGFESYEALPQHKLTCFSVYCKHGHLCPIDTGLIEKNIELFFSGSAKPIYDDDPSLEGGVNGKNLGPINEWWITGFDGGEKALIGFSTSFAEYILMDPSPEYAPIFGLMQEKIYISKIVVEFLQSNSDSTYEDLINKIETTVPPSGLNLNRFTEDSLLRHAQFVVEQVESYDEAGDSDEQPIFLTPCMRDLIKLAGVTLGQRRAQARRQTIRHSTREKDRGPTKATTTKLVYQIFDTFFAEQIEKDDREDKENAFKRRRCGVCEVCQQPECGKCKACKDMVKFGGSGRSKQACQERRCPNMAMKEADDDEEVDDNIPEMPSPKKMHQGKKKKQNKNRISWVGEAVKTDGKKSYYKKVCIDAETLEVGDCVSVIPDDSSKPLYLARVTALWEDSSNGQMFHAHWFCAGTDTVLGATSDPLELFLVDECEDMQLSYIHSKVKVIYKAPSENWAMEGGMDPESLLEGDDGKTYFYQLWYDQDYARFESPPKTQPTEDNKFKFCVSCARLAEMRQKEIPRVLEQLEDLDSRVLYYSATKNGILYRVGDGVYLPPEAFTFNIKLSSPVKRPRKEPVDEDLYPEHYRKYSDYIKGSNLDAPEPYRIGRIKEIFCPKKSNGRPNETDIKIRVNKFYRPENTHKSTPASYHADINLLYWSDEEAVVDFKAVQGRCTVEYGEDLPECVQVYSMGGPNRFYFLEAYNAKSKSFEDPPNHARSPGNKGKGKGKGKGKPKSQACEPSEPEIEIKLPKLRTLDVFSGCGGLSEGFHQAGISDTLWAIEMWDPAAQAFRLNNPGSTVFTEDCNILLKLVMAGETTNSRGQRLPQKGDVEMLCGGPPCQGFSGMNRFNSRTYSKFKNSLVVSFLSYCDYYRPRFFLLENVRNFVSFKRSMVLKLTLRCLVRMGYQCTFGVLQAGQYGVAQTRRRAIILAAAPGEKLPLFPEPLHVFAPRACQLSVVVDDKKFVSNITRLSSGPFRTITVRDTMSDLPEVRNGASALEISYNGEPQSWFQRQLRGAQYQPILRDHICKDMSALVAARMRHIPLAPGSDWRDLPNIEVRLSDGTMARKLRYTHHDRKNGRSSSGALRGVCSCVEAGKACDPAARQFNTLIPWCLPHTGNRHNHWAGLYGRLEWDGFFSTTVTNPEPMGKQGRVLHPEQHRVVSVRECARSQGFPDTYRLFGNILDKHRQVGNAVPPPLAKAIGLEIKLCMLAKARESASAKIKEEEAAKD
# experimentNotes: Selective depletion of DNMT1 by Western blot in treated HCT116 cells
# Type: cell-based
# Parameters: Protein extracts (equivalent to 100 μg) were isolated from HCT116 cells; endogenous in cells; host or cells: HCT116
# statedConditions: HCT-116, 100 μM
Counter-ions that a name gives are not always drawn.

// worked examples, % DNMT1 protein level remaining at 100 µM included
Entry C[n+]1ccc(Nc2cccc(C(=O)Nc3ccc(Nc4ccnc5ccc(N)cc45)cc3)c2)cc1 [Cpd. M] ; % DNMT1 protein level remaining at 100 µM = 43%

For this compound ( C[n+]1ccc(Nc2cccc(NC(=O)c3ccc(Nc4ccnc5cc(N)ccc45)cc3)c2)cc1 [Cpd. V] ), measured % DNMT1 protein level remaining at 100 µM is 124%

Please look at the items below and tell me % DNMT1 protein level remaining at 100 µM for each one, in order.
1. C[n+]1ccc(Nc2cccc(NC(=O)c3ccc(Nc4ccnc5ccccc45)cc3)c2)cc1 [Cpd. A]
2. C[n+]1ccc(Nc2cccc(NC(=O)c3ccc(Nc4ccnc5ccc(N)cc45)cc3)c2)cc1 [Cpd. K]
3. Cc1cc(Nc2ccc(NC(=O)c3ccc(Nc4ccnc5ccc(N(C)C)cc45)cc3)cc2)nc(N)n1.Cl [Cpd. P, hydrochloride]
4. C[n+]1ccc(Nc2ccc(NC(=O)c3ccc(Nc4ccnc5ccccc45)cc3)cc2)cc1 [Cpd. B, hydrochloride]
5. Cc1cc(Nc2ccc(NC(=O)c3ccc(Nc4ccnc5ccc([N+](=O)[O-])cc45)cc3)cc2)nc(N)n1 [Cpd. H, hydrochloride]
6. CN(C)c1ccc2nccc(Nc3ccc(C(=O)Nc4cccc(Nc5cc[n+](C)cc5)c4)cc3)c2c1 [Cpd. Q]

Reply text:
["119%", "37%", "11%", "81%", "24%", "10%"]

###

I'd be grateful if you could share measured % DNMT1 protein level remaining at 5 µM for these entries.
# system: UniProt:P26358
# experimentNotes: Selective depletion of DNMT1 by Western blot in treated HCT116 cells
# Format: cell-based
# Set-up: Protein extracts (equivalent to 100 μg) were isolated from HCT116 cells; endogenous in cells; host or cells: HCT116
# statedConditions: HCT-116, 5 μM
Where a name gives a salt, the structure may show the parent alone.
Answers are plain numbers, in %.

Sample records with % DNMT1 protein level remaining at 5 µM:
// field: % DNMT1 protein level remaining at 5 µM; key: C[n+]1ccc(Nc2ccc(NC(=O)c3ccc(Nc4ccnc5ccc(N)cc45)cc3)cc2)cc1 [Cpd. L] ; value = 144

Given item C[n+]1ccc(Nc2ccc(NC(=O)c3ccc(Nc4ccnc5ccccc45)cc3)cc2)cc1 [Cpd. B, hydrochloride] , the value recorded as its % DNMT1 protein level remaining at 5 µM is 102

Please give % DNMT1 protein level remaining at 5 µM for each item listed below.
1. C[n+]1ccc(Nc2cccc(C(=O)Nc3ccc(Nc4ccnc5ccc([N+](=O)[O-])cc45)cc3)c2)cc1 [Cpd. J]
2. C[n+]1ccc(Nc2cccc(NC(=O)c3ccc(Nc4ccnc5ccccc45)cc3)c2)cc1 [Cpd. A]
3. Cc1cc(Nc2cccc(C(=O)Nc3ccc(Nc4ccnc5ccc(N(C)C)cc45)cc3)c2)nc(N)n1 [Cpd. EE]
4. Cc1cc(Nc2ccc(NC(=O)c3ccc(Nc4ccnc5c(F)c(F)c(F)cc45)cc3)cc2)nc(N)n1 [Cpd. KK, dihydrochloride]

Reply text:
1. 101
2. 99
3. 30
4. 82
